These entries and their values trace back to patent US20150132764A1.

Molecular target: surface of J774 A1 macrophages (unidentified BAG3 binding partner) (murine)
Experiment: flow cytometry competition; 14 nM FITC-rBAG3 on J774 A.1 cells with 625 nM peptide
Reported % inhibition values are given for each entry in this list.
The answer is to be given in %; state only the numeric part.

A selection of reference data follows.
DKGKKNAGNAEDPHT [BAG3 peptide 3] : 47.2
DRDPLPPGWEIKIDPQ [BAG3 peptide 1] : 98.4
SSPKSVATEERAAPS [BAG3 peptide 2] : 89.1

Query: // query % inhibition value for entry NPSSMTDTPGNPAAP [BAG3 peptide 4]
Reply: 93.8
